biological target: TIP60 (Homo sapiens); assay: REMSA/EMSA with TIP60 protein; assay type: binding; parameters: 5 μg of full length purified H2A.Z (Abcam) and TIP60 (SignalChem) proteins were incubated; purchased SignalChem; settings: in vitro, 32P-labeled oligonucleotide, purified TIP60; RNA and DNA probes at same molar concentration
Sequence (Q92993 whole entry): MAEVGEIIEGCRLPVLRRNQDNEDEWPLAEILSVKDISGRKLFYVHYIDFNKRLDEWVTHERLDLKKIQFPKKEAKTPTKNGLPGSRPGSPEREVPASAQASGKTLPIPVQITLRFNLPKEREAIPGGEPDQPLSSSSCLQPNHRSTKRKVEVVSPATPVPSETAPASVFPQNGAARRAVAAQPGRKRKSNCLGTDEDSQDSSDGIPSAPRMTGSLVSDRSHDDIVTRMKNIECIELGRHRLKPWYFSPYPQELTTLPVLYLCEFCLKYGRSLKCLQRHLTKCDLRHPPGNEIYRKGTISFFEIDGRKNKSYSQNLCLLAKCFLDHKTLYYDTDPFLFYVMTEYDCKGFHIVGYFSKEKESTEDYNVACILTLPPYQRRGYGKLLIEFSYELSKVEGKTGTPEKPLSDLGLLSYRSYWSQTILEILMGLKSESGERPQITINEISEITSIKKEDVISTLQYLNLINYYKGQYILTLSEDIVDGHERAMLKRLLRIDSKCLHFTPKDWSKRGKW
recorded_metric: complex formation with TIP60

| substance | recorded_metric | reported_value |
| --- | --- | --- |
| DM3: DNA oligonucleotide duplex of the same primary sequence as UR3 (sense GGCGTGGCGGTGGGCGCGCAGT; antisense ACTGCGCGCCCACCGCCACGCC; DNA, backbone and methylation of C not given here; further chemistry not fully specified) | complex formation with TIP60 | weak complex formation |
| DM2: DNA oligonucleotide duplex of the same primary sequence as UR2 (sense CTTTCCTCCACTCTCCCTGGGA; antisense TCCCAGGGAGAGTGGAGGAAAG; DNA, backbone and methylation of C not given here; further chemistry not fully specified) | complex formation with TIP60 | weak complex formation |
